The origin of these recorded values is patent US20240408169A1.

Test system: NCI-H1048 cells
Test: MTT proliferation assay, NCI-H1048;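 also: Dose-response in 96-well plates over 8 or 10 concentration points, with exposure spanning 3-4 cell doublings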
Format: cell-based
Conditions: 5 days compound exposure, 1:3 serial dilution starting at 10 μM
*1 amine or outer side, *2 acyl side, *3 side chain or, on linkers, in order; H or OH if unused. Where a SMILES comes first, the peptide text is derived from it. Bridges are numbered along the chain shown (N, C = ends). [ ]: non-standard residue; d: D form. The star is where a group is joined. NMePhe(2-(4-MorPh),5-Cl) = CN[C@@H](Cc1cc(Cl)ccc1-c1ccc(N2CCOCC2)cc1)C(=O)O; X70 = CN1CCC[C@@H](c2ccc(-c3ccc(Cl)cc3C[C@@H](C(=O)[*:2])N(C)[*:1])cc2)C1; X87 = CN([C@@H](Cc1cc(F)ccc1-c1ccc(N2CCOCC2)cc1)C(=O)[*:2])[*:1]; X170 = CN([C@@H](Cc1cc(Cl)ccc1-c1ccc2nonc2c1)C(=O)[*:2])[*:1]; NMehhhLys(Me) = CN([C@@H](CCCCCCCN(C)[*:3])C(=O)[*:2])[*:1]; X5 = CN([C@@H](Cc1cc(Cl)ccc1-c1cnn2c1OCCC2)C(=O)[*:2])[*:1]; X135 = CN([C@@H](Cc1cc(Cl)ccc1-c1cn(C)cn1)C(=O)[*:2])[*:1]; X211 = Cc1ncc(-c2ccc(Cl)cc2C[C@@H](C(=O)[*:2])N(C)[*:1])s1; X22 = CN([C@@H](Cc1cc(Cl)ccc1-c1cnn(C)c1)C(=O)[*:2])[*:1]; NMe(hhhLys) = CN([C@@H](CCCCCCCN[*:3])C(=O)[*:2])[*:1]; NMe3Pal(2-OMe,5-Cl) = CN[C@@H](Cc1cc(Cl)cnc1OC)C(=O)O; Oxane2carbonyl(2R-CF3) = O=C([C@@]1(C(F)(F)F)CCCCO1)*; X164 = C=C(C)c1ccc(Cl)cc1C[C@@H](C(=O)[*:2])N(C)[*:1]; Cyclobutanecarbonyl(1-CF3) = O=C(C1(C(F)(F)F)CCC1)*; cBuCO(3,3-F2-1-CF3) = O=C(C1(C(F)(F)F)CC(F)(F)C1)*; X133 = Cc1ncc(Cl)cc1C[C@@H](C(=O)[*:2])N(C)[*:1]; Pro(trans-4-F) = O=C(O)[C@@H]1C[C@@H](F)CN1; Gly(cPr) = N[C@H](C(=O)O)C1CC1; X102 = C[C@]1(C(=O)*)CC1(F)F

{"molecule": "Cc1ncc(Cl)cc1C[C@H]1C(=O)N(C)CCCCCCC[C@H](N(C)C(=O)[C@@H](NC(=O)[C@@H]2C[C@@H](F)CN2C(=O)C2(C(F)(F)F)CC(F)(F)C2)C2CC2)C(=O)N[C@@H](CC(C)C)C(=O)N1C [Example 322] ({cBuCO(3,3-F2-1-CF3)}-[Pro(trans-4-F)][Gly(cPr)][NMehhhLys(Me)]L[X133]; lactam 3-C)", "GI50 [nM]": 30}
{"molecule": "CC(C)C[C@@H]1NC(=O)[C@@H](N(C)C(=O)[C@@H](NC(=O)[C@@H]2CCCN2C(=O)C2(C(F)(F)F)CCC2)C2CC2)CCCCCCCN(C)C(=O)[C@H](Cc2cc(Cl)ccc2-c2cnn(C)c2)N(C)C1=O [Example 76] ({Cyclobutanecarbonyl(1-CF3)}-P[Gly(cPr)][NMehhhLys(Me)]L[X22]; lactam 3-C)", "GI50 [nM]": 80}
{"molecule": "CC(C)C[C@@H]1NC(=O)[C@@H](N(C)C(=O)[C@@H](NC(=O)[C@@H]2C[C@@H](F)CN2C(=O)C2(C(F)(F)F)CC(F)(F)C2)C2CC2)CCCCCCCN(C)C(=O)[C@H](Cc2cc(Cl)ccc2-c2cnn3c2OCCC3)N(C)C1=O [Example 191] ({cBuCO(3,3-F2-1-CF3)}-[Pro(trans-4-F)][Gly(cPr)][NMehhhLys(Me)]L[X5]; lactam 3-C)", "GI50 [nM]": 10}
{"molecule": "CC(C)C[C@@H]1NC(=O)[C@@H](N(C)C(=O)[C@@H](NC(=O)[C@@H]2C[C@@H](F)CN2C(=O)C2(C(F)(F)F)CCC2)C2CC2)CC=CCCCCN(C)C(=O)[C@H](Cc2cc(Cl)cnc2OC2CC2)N(C)C1=O [Example 106]", "GI50 [nM]": 410}
{"molecule": "Cc1ncc(-c2ccc(Cl)cc2C[C@H]2C(=O)N(C)CCCCCCC[C@H](N(C)C(=O)[C@@H](NC(=O)[C@@H]3C[C@@H](F)CN3C(=O)C3(C(F)(F)F)CC(F)(F)C3)C3CC3)C(=O)N[C@@H](CC(C)C)C(=O)N2C)s1 [Example 75] ({cBuCO(3,3-F2-1-CF3)}-[Pro(trans-4-F)][Gly(cPr)][NMehhhLys(Me)]L[X211]; lactam 3-C)", "GI50 [nM]": 10}
{"molecule": "CC(C)C[C@@H]1NC(=O)[C@@H](N(C)C(=O)[C@@H](NC(=O)[C@@H]2C[C@@H](F)CN2C(=O)[C@@]2(C)CC2(F)F)C2CC2)CCCCCCCN(C)C(=O)[C@H](Cc2cc(Cl)ccc2-c2ccc(N3CCOCC3)cc2)N(C)C1=O [Example 400] (X102-[Pro(trans-4-F)][Gly(cPr)][NMehhhLys(Me)]L[NMePhe(2-(4-MorPh),5-Cl)]; lactam 3-C)", "GI50 [nM]": 10}
{"molecule": "CC(C)C[C@@H]1NC(=O)[C@@H](N(C)C(=O)[C@@H](NC(=O)[C@@H]2C[C@@H](F)CN2C(=O)C2(C(F)(F)F)CC(F)(F)C2)C2CC2)CCCCCCCN(C)C(=O)[C@H](Cc2cc(Cl)ccc2-c2ccc([C@@H]3CCCN(C)C3)cc2)N(C)C1=O [Example 411] ({cBuCO(3,3-F2-1-CF3)}-[Pro(trans-4-F)][Gly(cPr)][NMehhhLys(Me)]L[X70]; lactam 3-C)", "GI50 [nM]": 10}
{"molecule": "CC(C)C[C@@H]1NC(=O)[C@@H](N(C)C(=O)[C@@H](NC(=O)[C@@H]2C[C@@H](F)CN2C(=O)C2(C(F)(F)F)CC(F)(F)C2)C2CC2)CCCCCCCN(C)C(=O)[C@H](Cc2cc(Cl)ccc2-c2ccc3nonc3c2)N(C)C1=O [Example 170] ({cBuCO(3,3-F2-1-CF3)}-[Pro(trans-4-F)][Gly(cPr)][NMehhhLys(Me)]L[X170]; lactam 3-C)", "GI50 [nM]": 130}
{"molecule": "CC(C)C[C@@H]1NC(=O)[C@@H](N(C)C(=O)[C@@H](NC(=O)[C@@H]2C[C@@H](F)CN2C(=O)C2(C(F)(F)F)CC(F)(F)C2)C2CC2)CCCCCCCN(C)C(=O)[C@H](Cc2cc(Cl)ccc2-c2cn(C)cn2)N(C)C1=O [Example 242] ({cBuCO(3,3-F2-1-CF3)}-[Pro(trans-4-F)][Gly(cPr)][NMehhhLys(Me)]L[X135]; lactam 3-C)", "GI50 [nM]": 30}
{"molecule": "COc1ncc(Cl)cc1C[C@H]1C(=O)NCCCCCCC[C@H](N(C)C(=O)[C@@H](NC(=O)[C@@H]2C[C@@H](F)CN2C(=O)[C@@]2(C(F)(F)F)CCCCO2)C2CC2)C(=O)N[C@@H](CC(C)C)C(=O)N1C [Example 274] ({Oxane2carbonyl(2R-CF3)}-[Pro(trans-4-F)][Gly(cPr)][NMe(hhhLys)]L[NMe3Pal(2-OMe,5-Cl)]; lactam 3-C)", "GI50 [nM]": 10}
{"molecule": "CC(C)C[C@@H]1NC(=O)[C@@H](N(C)C(=O)[C@@H](NC(=O)[C@@H]2C[C@@H](F)CN2C(=O)C2(C(F)(F)F)CC(F)(F)C2)C2CC2)CCCCCCCN(C)C(=O)[C@H](Cc2cc(F)ccc2-c2ccc(N3CCOCC3)cc2)N(C)C1=O [Example 337] ({cBuCO(3,3-F2-1-CF3)}-[Pro(trans-4-F)][Gly(cPr)][NMehhhLys(Me)]L[X87]; lactam 3-C)", "GI50 [nM]": 10}
{"molecule": "C=C(C)c1ccc(Cl)cc1C[C@H]1C(=O)NCCCCCCC[C@H](N(C)C(=O)[C@@H](NC(=O)[C@@H]2C[C@@H](F)CN2C(=O)C2(C(F)(F)F)CC(F)(F)C2)C2CC2)C(=O)N[C@@H](CC(C)C)C(=O)N1C [Example 61] ({cBuCO(3,3-F2-1-CF3)}-[Pro(trans-4-F)][Gly(cPr)][NMe(hhhLys)]L[X164]; lactam 3-C)", "GI50 [nM]": 20}
